- measurementTarget: ABCB1 (P-glycoprotein) (Homo sapiens, UniProt P08183)
- Sequence (P08183 whole entry): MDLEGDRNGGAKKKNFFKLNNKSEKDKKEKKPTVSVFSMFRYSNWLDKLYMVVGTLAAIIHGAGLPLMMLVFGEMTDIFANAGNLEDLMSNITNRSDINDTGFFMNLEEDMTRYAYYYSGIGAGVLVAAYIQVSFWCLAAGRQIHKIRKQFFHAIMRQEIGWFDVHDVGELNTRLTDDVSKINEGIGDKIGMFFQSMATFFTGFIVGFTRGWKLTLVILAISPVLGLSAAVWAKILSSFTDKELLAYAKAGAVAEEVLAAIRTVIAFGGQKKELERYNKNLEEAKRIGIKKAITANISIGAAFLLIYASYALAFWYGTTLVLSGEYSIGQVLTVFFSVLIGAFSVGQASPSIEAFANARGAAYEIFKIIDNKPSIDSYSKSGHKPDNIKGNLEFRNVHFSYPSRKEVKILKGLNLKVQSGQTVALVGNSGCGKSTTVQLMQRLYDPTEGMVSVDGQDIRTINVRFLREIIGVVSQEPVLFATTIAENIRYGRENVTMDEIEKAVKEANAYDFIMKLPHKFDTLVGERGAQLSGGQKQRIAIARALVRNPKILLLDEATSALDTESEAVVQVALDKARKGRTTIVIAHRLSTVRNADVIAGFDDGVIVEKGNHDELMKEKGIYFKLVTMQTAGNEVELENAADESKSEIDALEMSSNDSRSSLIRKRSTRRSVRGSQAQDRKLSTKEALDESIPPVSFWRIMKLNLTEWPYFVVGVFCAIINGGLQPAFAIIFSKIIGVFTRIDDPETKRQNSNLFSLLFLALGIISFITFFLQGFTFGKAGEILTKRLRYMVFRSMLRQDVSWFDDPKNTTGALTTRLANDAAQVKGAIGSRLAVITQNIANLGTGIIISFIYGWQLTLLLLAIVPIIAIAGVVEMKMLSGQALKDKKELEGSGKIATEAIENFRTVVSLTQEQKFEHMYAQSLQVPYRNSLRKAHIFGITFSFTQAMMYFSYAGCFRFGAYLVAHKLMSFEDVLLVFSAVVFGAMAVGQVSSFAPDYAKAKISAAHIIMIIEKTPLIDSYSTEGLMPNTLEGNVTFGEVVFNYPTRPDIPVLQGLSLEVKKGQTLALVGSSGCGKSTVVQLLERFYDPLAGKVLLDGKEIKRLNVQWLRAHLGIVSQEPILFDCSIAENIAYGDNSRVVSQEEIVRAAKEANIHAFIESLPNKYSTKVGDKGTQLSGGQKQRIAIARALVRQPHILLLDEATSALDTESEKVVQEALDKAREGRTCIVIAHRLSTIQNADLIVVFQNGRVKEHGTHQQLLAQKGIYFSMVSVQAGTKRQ
- testDescription: Inhibition of human ABCB1 expressed in mouse L5178 cells assessed as increase in rhodamine-123 accumulation at 2 uM after 10 mins by flow cytometric analysis relative to control
- Assay type: cell-based
- experimentalParameters: mouse L5178 cells expressing human ABCB1, probe rhodamine-123
measurementName: inhibition at 10 min, 2 µM (%)

Examples from the recorded data:
CCO/N=C1/C=C2[C@H](CC[C@]3(C)[C@@H]([C@@]4(C)OC(C)(C)O[C@@H]4CCC(C)(C)O)CC[C@@]23O)[C@@]2(C)C[C@@H]3OC(C)(C)O[C@@H]3C[C@@H]12 : 19
C=CCO/N=C1\C=C2[C@H](CC[C@]3(C)[C@@H]([C@@]4(C)OC(C)(C)O[C@@H]4CCC(C)(C)O)CC[C@@]23O)[C@@]2(C)C[C@@H]3OC(C)(C)O[C@@H]3C[C@@H]12 : 21

1. CCO/N=C1/C=C2C3=CC[C@H]([C@@]4(C)OC(C)(C)O[C@@H]4CCC(C)(C)O)[C@@]3(C)CC[C@@H]2[C@@]2(C)C[C@@H]3OC(C)(C)O[C@@H]3C[C@@H]12
2. CCO/N=C1\C=C2[C@H](CC[C@]3(C)[C@@H]([C@@]4(C)OC(C)(C)O[C@@H]4CCC(C)(C)O)CC[C@@]23O)[C@@]2(C)C[C@@H]3OC(C)(C)O[C@@H]3C[C@@H]12
3. CC(C)(O)CC[C@H]1OC(C)(C)O[C@]1(C)[C@H]1CC[C@@]2(O)C3=CC(=O)[C@@H]4C[C@H]5OC(C)(C)O[C@H]5C[C@]4(C)[C@H]3CC[C@]12C
Exercise: Task field, ranking: reported inhibition at 10 min, 2 µM, descending order. In your reply, arrange the labels in the requested order.
Key: 1, 2, 3

====

- testDescription: Synergistic cytotoxicity against mouse L5178 cells expressing human ABCB1 assessed as combination index at ED75 using 30:1 test compound to doxorubicin ratio after 48 hrs by MTT-based checkerboard microplate method
- Assay type: functional
measurementName: CI
Just the number, please, no unit attached.

C=CCO/N=C1/C=C2[C@H](CC[C@]3(C)[C@@H]([C@@]4(C)OC(C)(C)O[C@@H]4CCC(C)(C)O)CC[C@@]23O)[C@@]2(C)C[C@@H]3OC(C)(C)O[C@@H]3C[C@@H]12 : 0.22

Exercise: Tell me CI reported for CO/N=C1\C=C2[C@H](CC[C@]3(C)[C@@H]([C@@]4(C)OC(C)(C)O[C@@H]4CCC(C)(C)O)CC[C@@]23O)[C@@]2(C)C[C@@H]3OC(C)(C)O[C@@H]3C[C@@H]12
Key: 0.21

Exercise: Please look at this compound and report its CI: CCO/N=C1/C=C2[C@H](CC[C@]3(C)[C@@H]([C@@]4(C)OC(C)(C)O[C@@H]4CCC(C)(C)O)CC[C@@]23O)[C@@]2(C)C[C@@H]3OC(C)(C)O[C@@H]3C[C@@H]12
Key: 0.23

====

- testDescription: Synergistic cytotoxicity against mouse L5178 cells assessed as combination index at ED50 using 600:1 test compound to doxorubicin ratio after 48 hrs by MTT-based checkerboard microplate method
- Type: functional
Recorded CI by entry
Form: value (number only, do not type unit).

CCO/N=C1/C=C2C3=CC[C@H]([C@@]4(C)OC(C)(C)O[C@@H]4CCC(C)(C)O)[C@@]3(C)CC[C@@H]2[C@@]2(C)C[C@@H]3OC(C)(C)O[C@@H]3C[C@@H]12 : 1.21
CC(C)(O)CC[C@H]1OC(C)(C)O[C@]1(C)[C@H]1CC=C2C3=C/C(=N/OC(C)(C)C)[C@@H]4C[C@H]5OC(C)(C)O[C@H]5C[C@]4(C)[C@H]3CC[C@@]21C : 0.88
CC(C)(O)CC[C@H]1OC(C)(C)O[C@]1(C)[C@H]1CC=C2C3=C/C(=N\O)[C@@H]4C[C@H]5OC(C)(C)O[C@H]5C[C@]4(C)[C@H]3CC[C@@]21C : 1.1
CC(C)(O)CC[C@H]1OC(C)(C)O[C@]1(C)[C@H]1CC=C2C3=CC(=O)N[C@@H]4C[C@H]5OC(C)(C)O[C@H]5C[C@]4(C)[C@H]3CC[C@@]21C : 0.58
CC(C)(O)CC[C@H]1OC(C)(C)O[C@]1(C)[C@H]1CC[C@@]2(O)C3=C/C(=N\OC(C)(C)C)[C@@H]4C[C@H]5OC(C)(C)O[C@H]5C[C@]4(C)[C@H]3CC[C@]12C : 1

Exercise: State, in one line, measured CI of CC(C)(O)CC[C@H]1OC(C)(C)O[C@]1(C)[C@H]1CC=C2C3=C/C(=N/O)[C@@H]4C[C@H]5OC(C)(C)O[C@H]5C[C@]4(C)[C@H]3CC[C@@]21C
Key: 1.01

Exercise: Specify reported CI for the compound shown: C=CCO/N=C1\C=C2[C@H](CC[C@]3(C)[C@@H]([C@@]4(C)OC(C)(C)O[C@@H]4CCC(C)(C)O)CC[C@@]23O)[C@@]2(C)C[C@@H]3OC(C)(C)O[C@@H]3C[C@@H]12
Key: 1.19

Exercise: Provide measured CI value, entry: C=CCO/N=C1/C=C2C3=CC[C@H]([C@@]4(C)OC(C)(C)O[C@@H]4CCC(C)(C)O)[C@@]3(C)CC[C@@H]2[C@@]2(C)C[C@@H]3OC(C)(C)O[C@@H]3C[C@@H]12
Key: 0.88

Exercise: # return recorded CI for entry CCO/N=C1\C=C2[C@H](CC[C@]3(C)[C@@H]([C@@]4(C)OC(C)(C)O[C@@H]4CCC(C)(C)O)CC[C@@]23O)[C@@]2(C)C[C@@H]3OC(C)(C)O[C@@H]3C[C@@H]12
Key: 1.02
